# EXPERIMENT NOTES: qHTS profiling of the MIPE4 collection as inhibitors of Plasmodium falciparum (DD2) proliferation (Rep 2) (AID 743346)
# CONDITION: P. falciparum Dd2 in erythrocytes, SYBR Green DNA, 72 h; at 28.5 µM unless noted
MEASURE: parasite growth, % of control (lower = inhibition) (%)

INSERT INTO assay_data (compound, measured_number) VALUES
  ('CN(C)c1ccc(O)c2c1C[C@H]1C[C@H]3[C@H](N(C)C)C(=O)C(C(N)=O)=C(O)[C@@]3(O)C(=O)C1=C2O', 6.85),
  ('CC(C)c1ccc2c(c1)c(SC(C)(C)C)c(CC(C)(C)C(=O)O)n2Cc1ccc(Cl)cc1', 22),
  ('C[C@H](Cn1cnc2c(N)ncnc21)OCP(=O)(O)O', 107),
  ('N=C(N)c1ccc2cc(OC(=O)c3ccc(N=C(N)N)cc3)ccc2c1', 14),
  ('Cc1ncc([N+](=O)[O-])n1CC(C)O (stereo not given)', 94.8);

* * *

# EXPERIMENT NOTES: qHTS assay to identify small molecule inhibitors of chordoma cells - UCH-2 (AID 1259356)
# CONDITION: UCH-2 chordoma viability, CellTiter-Glo ATP luminescence, 48 h; series mostly up to 46.1 µM
# From the text: NIH Chemical Genomics Center [NCGC] Chordoma is a rare and slow growing tumor that can occur anywhere along the spine, from the base of the skull to the tailbone. Current treatment options for chordoma is surgery and radiation therapy for those who are not candidates for surgery. But chordomas tend to return in the same location or surrounding areas of the original tumor after surgery and/or radiation. Chemotherapy can slow down the progression of the tumor. […]
Results filed as inconclusive are left out. Calls of active or inactive are those of the source. The call rests on the fitted dose curve; in most records, active means well fitted cell-killing curve with a large enough effect; inconclusive means small, poorly fitted or top-dose-only effect; inactive means flat fitted curve, though single readings scatter.
Classes used: t for active, f for inactive

INSERT INTO measurements (molecule, assigned_class) VALUES
  ('CN(c1nccc(=O)[nH]1)C1CCN(c2nc3ccccc3n2Cc2ccc(F)cc2)CC1', 'f'),
  ('C=CCc1cc(OC)c(O)c(C(=O)NCCO)c1', 'f'),
  ('CN(C)c1ccc2nc3ccc(=[N+](C)C)cc-3sc2c1', 't'),
  ('Cc1nc2n(c(=O)c1CCN1CCC(c3noc4cc(F)ccc34)CC1)CCCC2', 'f'),
  ('Clc1ccc(C(Cn2ccnc2)OCc2ccsc2Cl)c(Cl)c1 (stereo not drawn)', 'f'),
  ('CCC(C)(Oc1ccc(C2(c3ccc(OC(C)(CC)C(=O)O)cc3)CCCCC2)cc1)C(=O)O (stereo not drawn)', 'f'),
  ('CCc1nc(N)nc(N)c1-c1ccc(Cl)cc1', 'f'),
  ('CC(C)[N+]1(C)[C@@H]2CC[C@H]1CC(OC(=O)C(CO)c1ccccc1)C2 (stereo partly drawn)', 'f'),
  ('CCCCC(CC)COC(=O)C(C#N)=C(c1ccccc1)c1ccccc1 (stereo not drawn)', 'f'),
  ('NS(=O)(=O)c1cc(C(=O)O)c(NCc2ccco2)cc1Cl', 'f'),
  ('S=c1nc[nH]c2nc[nH]c12', 'f'),
  ('COC1=C(OC)C(=O)C(CCCCCCCCCCO)=C(C)C1=O', 'f'),
  ('N[C@@H](Cc1cc(I)c(Oc2cc(I)c(O)c(I)c2)c(I)c1)C(=O)O', 'f'),
  ('O=C1CCc2ccc(OCCCCN3CCN(c4cccc(Cl)c4Cl)CC3)cc2N1', 'f'),
  ('CCCOc1ccc2nc(NC(=O)OC)[nH]c2c1', 'f'),
  ('O=C(O)CCNC(=O)c1ccc(N=Nc2ccc(O)c(C(=O)O)c2)cc1', 'f'),
  ('CC1(C)CCC(C)(C)c2cc(NC(=O)c3ccc(C(=O)O)cc3)ccc21', 'f'),
  ('COc1cc2nc(N3CCN(C(=O)C4CCCO4)CC3)nc(N)c2cc1OC (stereo not drawn)', 'f'),
  ('COC(=O)C1=C(C)NC(C)=C(C(=O)OC(C)C)C1c1cccc2nonc12 (stereo not drawn)', 'f'),
  ('CC(C)Oc1ccc2c(=O)c(-c3ccccc3)coc2c1', 'f'),
  ('O=C(OC1C[C@H]2CC[C@@H](C1)[N+]21CCCC1)C(O)(c1ccccc1)c1ccccc1 (stereo partly drawn)', 'f'),
  ('CN1CCC(=C2c3ccccc3CCc3sccc32)CC1', 'f'),
  ('COc1cc(OC)c(C(=O)CCCN2CCCC2)c(OC)c1', 'f');

src = PubChem BioAssay (NCATS)
